Target: hAT1R (Homo sapiens)
Sequence (P30556 1-359): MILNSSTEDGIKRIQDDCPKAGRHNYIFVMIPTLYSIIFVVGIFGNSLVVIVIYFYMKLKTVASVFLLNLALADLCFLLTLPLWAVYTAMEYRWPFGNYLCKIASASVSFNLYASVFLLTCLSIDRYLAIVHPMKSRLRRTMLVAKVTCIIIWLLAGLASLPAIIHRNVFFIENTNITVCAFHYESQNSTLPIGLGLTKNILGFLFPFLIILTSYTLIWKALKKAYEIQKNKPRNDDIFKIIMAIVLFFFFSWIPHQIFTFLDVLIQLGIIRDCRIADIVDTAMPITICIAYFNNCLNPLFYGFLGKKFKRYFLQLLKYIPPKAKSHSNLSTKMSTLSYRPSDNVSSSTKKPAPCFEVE
Experiment: BRET β-arrestin2 biosensor assay, higher receptor expression (hAT1R 5 ng/well), HEK293 cells
Format: cell-based
Settings: High AT1R Expression
pEC50: −log10 of the molar value.
Could you label it criterion met if measured pEC50 is 8 or higher, and criterion not met otherwise?

- structure: "CCc1nc2c(C)cc(C)nc2n1Cc1ccc(-c2cc(-n3cccc3)ccc2-c2nn[nH]n2)cc1"
  target_desc: "hAT1R (Homo sapiens)"
  qualitative_label: "criterion not met"

Next:
Dear colleague, could you confirm whether `CCOc1nc2cccc(C(=O)O)c2n1Cc1ccc(-c2cc(-c3ccccc3)ccc2-c2noc(=O)[nH]2)cc1` has pEC50 at or above 8?
criterion met
